Test: Cytotoxicity activity against human HepG2 cells assessed by CellTiter-Glo luminescent cell viability assay.
Assay type: toxicity, cell-based
Set-up: assay stage confirmatory assay, source tissue liver
Conditions: HepG2 cells, read-out: IC50 relative
Active and inactive are the calls of the source. The rule behind the calls is not given here.
Labels: yes (1) for active, no (0) for inactive

compound	label
CN(C)C/C=C/C(=O)Nc1ccc(C(=O)Nc2cccc(Nc3ncc(Cl)c(-c4c[nH]c5ccccc45)n3)c2)cc1	yes (1)
C[C@@H](O[C@H]1OCCN(Cc2n[nH]c(=O)[nH]2)[C@H]1c1ccc(F)cc1)c1cc(C(F)(F)F)cc(C(F)(F)F)c1 [APREPITANT]	no (0)
CCCc1cc(C)[nH]c(=O)c1CNC(=O)c1cc(-c2ccc(N3CCN(C(C)C)CC3)nc2)cc2c1cnn2C(C)C	yes (1)
CC(C)(C)N1C(=O)C(Nc2ccc(N3CCCCC3)cc2)=C(c2ccccc2)S1(=O)=O	yes (1)

Where do these numbers come from? They come from ChEMBL document CHEMBL5303711.
